Quick reference: Papp A→B of the listed items.
Experiment: Permeability from apical to basolateral side of human Caco2 cells
Assay type: ADME, cell-based
Details: Caco-2, read-out: permeability

Solved cases below.
structure=CN(C)S(=O)(=O)NC(=O)[C@@]12C[C@H]1/C=C\CCCCC[C@H](NC(=O)OC(C)(C)C)C(=O)N1C[C@H](OC(=O)N3Cc4ccccc4C3)C[C@H]1C(=O)N2 observed_measurement="< 20 nm/s"
structure=CC(C)(C)OC(=O)N[C@H]1CCCCC/C=C\[C@@H]2C[C@@]2(C(=O)NS(=O)(=O)C2CC2)NC(=O)[C@@H]2C[C@@H](OC(=O)N3CCc4ccccc4C3)CN2C1=O observed_measurement="< 20 nm/s"
structure=CC(C)(C)OC(=O)N[C@H]1CCCCC/C=C\[C@@H]2C[C@@]2(C(=O)NS(=O)(=O)C2CC2)NC(=O)[C@@H]2C[C@@H](OC(=O)N3Cc4ccccc4C3)CN2C1=O observed_measurement="< 20 nm/s"

As a next step, examine the compound that follows.
Input CC(C)(C)OC(=O)N[C@H]1CCCCC/C=C\[C@@H]2C[C@@]2(C(=O)NS(=O)(=O)C2CC2)NC(=O)[C@@H]2C[C@@H](OC(=O)N3Cc4cccc(F)c4C3)CN2C1=O . Output Papp A→B: < 20 nm/s

The values you see were collected from ChEMBL document CHEMBL3120136.
